Every entry's value here was drawn from PubChem BioAssay (NCI).

Listed next: entries and their corresponding TGI.
Tested on: M14 melanoma
Assay: NCI tumour cell line growth inhibition, 48 h

1) Nc1c(S(=O)(=O)O)cc(S(=O)(=O)O)c2ccc(N=Nc3ccccc3)c(O)c12 : > 100 µM
2) Cc1cc(S(=O)(=O)Nc2nc3ccccc3c(=O)n2Cc2ccco2)c(S)cc1Cl : > 100 µM
3) CCCCCCCCCCCCCCCC(=O)NS(=O)(=O)OC[C@H]1O[C@@H](n2cnc3c(N)ncnc32)[C@H](O)[C@@H]1O : 2.17 µM
4) N#CC1=C(N)N=C(N2CCOCC2)C(C#N)C12Nc1ccccc1S2 (stereo unspecified) : 65.4 µM
5) CN(C)c1n2c3ccc([N+](=O)[O-])cc3n3c(N(C)C)[n+]4ccccc4c3c2c2cccc[n+]12 : > 100 µM

Query: Using the record for CN1C(=O)C(=Cc2ccc(Br)cc2)C(=O)N(C)C1=O , report its TGI.
Response: > 100 µM

* * *

System: KM12 colon
Experiment: NCI tumour cell line growth inhibition, 48 h; in the data active = GI50 below about 0.43 µM; inactive = the rest
Respond with a class label; see active, inactive

Study these solved cases before continuing.
1) CCOC(=O)C1=C(C)NC2SC(=O)/C(=C\c3cccc(Cl)c3)N2C1c1ccccc1 (stereo unspecified) : inactive
2) CCCCCOC(=O)Nc1nc(=O)n(C2OC(C)C(O)C2O)cc1F (stereo unspecified) : inactive
3) COc1cc(/C=C2\CCC/C(=C\c3cc(CN4CCCC4)c(O)c(OC)c3)C2=O)cc(CN2CCCC2)c1O : inactive
4) C[n+]1cccc(NC(=O)c2ccc3ccc4ccc(C(=O)Nc5ccc[n+](C)c5)nc4c3n2)c1 : inactive
5) Cc1ccc(NC(=S)NNC(=S)Nc2ccc(C)cc2)cc1 : inactive
6) CCOC(=O)c1c(C)n([O-])c2cc(F)c(F)cc2[n+]1=O : inactive
7) CS(=O)(=O)Nc1cc(-c2ccc3ncc(C#N)c(Nc4ccc(F)c(Cl)c4)c3c2)cnc1Cl : active
8) Clc1nc(Cl)c2ncn(-c3ccccc3)c2n1 : inactive

Query: Field: outcome | Entry: CO/N=C(/C)COc1ccc2c(c1)oc(=O)c1cc(OC)ccc12
Response: inactive

Query: Could you kindly confirm the outcome this assay logged for O=S(=O)(NCCNc1nccc(-c2c(-c3ccc(F)cc3)nc3sccn23)n1)c1ccc(O)cc1 ?
Response: inactive

* * *

Test system: NCI-H23 lung
Assay: NCI tumour cell line growth inhibition, 48 h; in the data active means GI50 below about 0.43 µM; inactive means the rest
API: response.call in t (active), f (inactive)

Example results:
1) CCCCCCCCCCCCCCCC(=O)NS(=O)(=O)OC[C@H]1O[C@@H](n2cnc3c(N)ncnc32)[C@H](O)[C@@H]1O : t
2) COc1ccc(-c2nc3sccn3c2-c2ccnc(NCCNS(=O)(=O)c3ccc(C(F)(F)F)cc3)n2)cc1 : f
3) CC(C)C[C@H](NC(=O)[C@@H](Cc1ccccc1)n1ccc(Nc2ccccc2)cc1=O)B(O)O : f
4) CC(=O)OC(C(=O)[O][Ge]([CH3])([CH3])[CH3])c1ccccc1 (centres undefined) : f
5) Cc1nc2ccc(-n3ncc(C(=O)c4cc5ccccc5[nH]4)c3N)cc2[nH]1 : f

Query: Could you kindly confirm the outcome this assay logged for O=C1/C(=C/c2ccc(Cl)cc2)CN(Cc2cn(CCCNc3ccnc4cc(Cl)ccc34)nn2)C/C1=C\c1ccc(Cl)cc1 ?
Response: f

Query: Could you kindly confirm the outcome this assay logged for CO/N=C(/C)COc1ccc2c(c1)oc(=O)c1cc(OC)ccc12 ?
Response: f

Query: Short answer needed: outcome of this test for CCCCCCCCCN=C(N)c1ccc(N2CCN(c3ccc(C(N)=NCCCCCCCCC)cc3)CC2)cc1 ?
Response: f

Query: How did this test come out for COc1ccc(OC)c(C2=C(c3cn(C)c4ccccc34)C(=O)NC2=O)c1 ?
Response: f

* * *

Test system: HL-60(TB) leukemia
Experiment: NCI tumour cell line growth inhibition, 48 h
Catalogue of TGI values

Guide cases for TGI, answers given:
1. CCOC(=O)c1c2ccccc2n2c(=O)n(-c3ccc(OC)cc3)nnc12 : > 100 µM
2. COc1cc(-c2oc3c(OC)c(O)c(OC)c(O)c3c(=O)c2OC)cc(OC)c1OC : > 100 µM
3. Cc1nc(C)c(N2CCN(Cc3ccccc3)CC2)c(=O)[nH]1 : > 100 µM
4. CCCCCCCCCCCCCCCCCCN(C)CC(COC)OP(=O)([O-])OCC[N+](C)(C)C (stereo unspecified) : 8.53 µM
5. Cc1cn(CC(=S)NCCc2c[nH]c3ccccc23)c(=O)[nH]c1=O : > 100 µM

Query: Quick one: TGI of Cn1c2c(c3ccccc31)CCN1C[C@@H]3CCCC[C@H]3C[C@@H]21 ?
Response: > 28.4 µM

Query: TGI for CC(=O)OC(COc1ccc2c(c1)[n+]([O-])nc(N)[n+]2[O-])CN1CCCCC1 (stereo unspecified) ?
Response: 26.9 µM

Query: Please look up its TGI: OC1CC(O)O[C@H](c2ccccc2)C1 (stereo partly specified)
Response: > 100 µM

* * *

Attribute: TGI
System: RXF 393 renal
Assay: NCI tumour cell line growth inhibition, 48 h
Respond with the bare value in µM.

Record excerpt, results attached:
1. CN(C)CCC(=O)[C@@]1(O)CC[C@H]2[C@@H]3CC=C4C[C@@H](O)CC[C@]4(C)[C@H]3CC[C@@]21C : 23.1
2. O=C1c2ccccc2C(=O)c2c1oc1cc(O)c(Cl)cc21 : 24.5
3. CCC1=CC(OCc2ccccc2)C(CCN(Cc2ccccc2)C(=O)OCc2ccccc2)C1 (configuration not stated) : 17.7
4. [O-]c1c2c(nn1-c1ccc(F)cc1)c1ccccc1c[n+]2Cc1ccccc1 : 33.7
5. CS(=O)(=O)Nc1cc(-c2ccc3ncc(C#N)c(Nc4ccc(F)c(Cl)c4)c3c2)cnc1Cl : 0.6
6. CCOC(=O)c1c(C)n([O-])c2cc(F)c(F)cc2[n+]1=O : 5.76
7. CC(C)c1cnc(-c2cc(Cl)ccc2F)cc1Nc1ccncc1C(=O)NC(CO)CO : 27
8. Cc1ccc(NC(=O)c2cccc(OP(=O)(Nc3ccc(C)cc3)Nc3ccc(C)cc3)c2)cc1 : 6.75

Query: What measured TGI goes with Clc1nc(Cl)c2ncn(-c3ccccc3)c2n1 ?
Response: 18.8

Query: Please give the measured TGI for this compound: O=C(Nc1ccccc1)OCCN=c1c2ccccc2ccc2ccccc12
Response: 75.9

Query: Fill in: TGI of CC1=CC2(C)C=C[C@@H]1C(=O)[C@@]1(C)CC[C@@](O)(C(C)C)[C@H]1CC2 is ___
Response: 43.5

Query: Which TGI is reported for this compound? Cc1cc(-c2nc3cc(F)ccc3s2)ccc1N
Response: 52.4

* * *

Test system: MCF7 breast
Assay: NCI tumour cell line growth inhibition, 48 h; in the data active = GI50 below about 0.43 µM; inactive = the rest
Outcome field: choose from active, inactive

1. COc1cc(/C=C2\CCC/C(=C\c3cc(CN4CCCC4)c(O)c(OC)c3)C2=O)cc(CN2CCCC2)c1O : inactive
2. CCOc1cc(Cl)c(C(C)NC(=O)c2cccc(OC)c2)cc1OCC (stereo not drawn) : inactive

Let us examine a further case.
Query: Please let me know the test result on file for CCN1CCN(Cc2ccc(Nc3ncc(F)c(-c4cc(F)c5nc(C)n(C(C)C)c5c4)n3)nc2)CC1 .
Response: active

* * *

# Lookup of reported log10 TGI keyed by entry
Test system: NCI-H226 lung
Experiment: NCI tumour cell line growth inhibition, 48 h
Field: value | Transform: log10 | Quantity: TGI | Unit: µM

These recorded examples may help you get a feel for the data.
1. CC1=CC2(C)C=C[C@@H]1C(=O)[C@@]1(C)CC[C@@](O)(C(C)C)[C@H]1CC2 : 1.64
2. CCc1ccc(Oc2c(-c3ccc(OCCc4cccc(C(F)(F)F)c4)cc3O)n[nH]c2C(F)(F)F)cc1 : 1.16
3. CCOC(=O)/C(=C\c1c[nH]c2ccccc12)P(=O)(OCC)OCC : 1.89
4. CCOC(=O)C#Cc1cccc(C#CC(=O)OCC)c1 : 1.34
5. COc1ccc2c(c1)OCC1c3cc(OC)c4ccccc4c3OC21 (configuration not stated) : 1.96

Query: Entry Cc1cc(O)ccc1C1(c2ccc(O)cc2C)OC(=O)c2ccccc21 , system NCI-H226 lung: what log10 TGI was measured?
Response: 1.61

Query: Notebook entry, NCI-H226 lung assay: log10 TGI of NC1=NC(c2ccc(Cl)cc2)=CC(c2cccc(Cl)c2)S1 (configuration not stated) = ?
Response: 1.86

Query: Please tell me: log10 TGI of c1ccc2c(c1)CCN1CCc3ccccc3C1C2 (configuration not stated) , system NCI-H226 lung?
Response: 1.97

Query: Any idea what log10 TGI came out for CSC1=CC(=O)c2ccccc2C1=O on NCI-H226 lung?
Response: 0.58

Query: Please state recorded log10 TGI (tested on NCI-H226 lung) of COc1cc(/C=C2\CCC/C(=C\c3cc(CN4CCCC4)c(O)c(OC)c3)C2=O)cc(CN2CCCC2)c1O
Response: 0.84

Query: Under NCI-H226 lung: log10 TGI value of O=S(=O)(NCCNc1nccc(-c2c(-c3ccc(F)cc3)nc3sccn23)n1)c1ccc(O)cc1 ?
Response: 1.34

Query: Request body: readout log10 TGI, system NCI-H226 lung, query CC(=O)OC1C(O)C(C)OC(OC2C(OC(=O)C3CCC4C(C3)OC3(CC(OC(=O)/C=C/c5ccccc5)C(C)CO3)C43CO3)OC(C)C(O)C2OC(C)=O)C1O (configuration not stated) . Return the value.
Response: -1.28
